inhibition values by entry
Biological target: Prostaglandin G/H synthase 2 (Homo sapiens)
Test: Inhibition of COX-2 (unknown origin) using arachidonic acid as substrate at 10 uM preincubated for 10 mins followed by substrate addition and measured after 5 mins by fluorescence based analysis relative to control
Conditions: time 15.0 min
Give the number; % is assumed, so skip it.

Consider the reported inhibition for these compounds:
CCc1nn(-c2ccccc2)c(O)c1Cc1ccc(C(=O)NO)cc1 : 82.5
Cc1nn(-c2ccccc2)c(O)c1Cc1cccc(S(C)(=O)=O)c1 : 84.5

Exercise: Can you share its inhibition? I mean this compound: COc1cccc(-n2nc(C)c(Cc3ccc(C(=O)O)cc3)c2O)c1
Solution: 79

Exercise: Also check Cc1nn(-c2ccccc2)c(O)c1Cc1ccc(CC(=O)O)cc1
Solution: 86.5

Exercise: Please do the same for Cc1nn(-c2ccccc2)c(O)c1Cc1ccc(C(=O)O)cc1 as well.
Solution: 95

Exercise: Would you mind doing Cc1nn(-c2ccc(Cl)c(Cl)c2)c(O)c1Cc1ccc(C(=O)NO)cc1 as well?
Solution: 80.5

Exercise: // query: Cc1nn(-c2ccccc2)c(O)c1Cc1ccc(S(C)(=O)=O)cc1
Solution: 90

Exercise: Entry CC(C)(C)c1nn(-c2ccccc2)c(O)c1Cc1ccc(C(=O)O)cc1 please
Solution: 73

Exercise: // next record CCc1nn(-c2ccccc2)c(O)c1Cc1ccc(C(=O)O)cc1
Solution: 83.5

Exercise: Then this compound: COc1cccc(-n2nc(C)c(Cc3ccc(C(=O)NO)cc3)c2O)c1
Solution: 89

Exercise: Similarly, Cc1nn(-c2ccccc2)c(O)c1Cc1cccc(C(=O)O)c1 ?
Solution: 94.5

====

Assay: Clearance in ICR mouse at 10 mg/kg,po administration measured for 0.25 to 8 hrs by LC-MS/MS analysis
Assay type: ADME, organism-based
Conditions: in vivo, time 0.25-8 hrs
MEASURED ATTRIBUTE: CL/F (L/h/kg)
Write it as a number; the unit L/h/kg goes unstated.

Exercise: Which value of CL/F has been reported for Cc1[nH]n(-c2ccccc2)c(=O)c1Cc1ccc(C(=O)NO)cc1 in the records?
Solution: 0.355

====

Test: Clearance in ICR mouse at 1 mg/kg,iv administration measured for 0.25 to 8 hrs by LC-MS/MS analysis
Format: ADME, organism-based
Conditions: in vivo, time 0.25-8 hrs
MEASURED ATTRIBUTE: clearance

Exercise: // returns reported clearance for input Cc1[nH]n(-c2ccccc2)c(=O)c1Cc1ccc(C(=O)NO)cc1
Solution: 2.12 mL/min/kg

====

Test: AUC (0 to infinity) in ICR mouse at 1 mg/kg,iv administration measured for 0.25 to 8 hrs by LC-MS/MS analysis
Format: ADME, organism-based
Details: in vivo, time 0.25-8 hrs
MEASURED ATTRIBUTE: AUC(0-inf)
Include the unit after the number when you answer.

Exercise: Data request, read-out AUC(0-inf), for Cc1[nH]n(-c2ccccc2)c(=O)c1Cc1ccc(C(=O)NO)cc1
Solution: 7870 ng·h/mL

====

Experiment: Tmax in ICR mouse at 10 mg/kg,po administration measured for 0.25 to 8 hrs by LC-MS/MS analysis
Type: ADME, organism-based
Conditions: in vivo, time 0.25-8 hrs
MEASURED ATTRIBUTE: Tmax
Value and unit, in that order.

Exercise: Tmax lookup needed for Cc1[nH]n(-c2ccccc2)c(=O)c1Cc1ccc(C(=O)NO)cc1 , thanks.
Solution: 1 h

====

Experiment: Cmax in ICR mouse at 1 mg/kg,iv administration measured for 0.25 to 8 hrs by LC-MS/MS analysis
Format: ADME, organism-based
Conditions: in vivo, time 0.25-8 hrs
MEASURED ATTRIBUTE: Cmax (ng/mL)
Just the number in ng/mL, nothing appended.

Exercise: Please look up its Cmax: Cc1[nH]n(-c2ccccc2)c(=O)c1Cc1ccc(C(=O)NO)cc1
Solution: 12200

====

Experiment: Apparent volume of distribution in ICR mouse at 1 mg/kg,iv administration measured for 0.25 to 8 hrs by LC-MS/MS analysis
Type: ADME, organism-based
Settings: in vivo, time 0.25-8 hrs, read-out: Vz
MEASURED ATTRIBUTE: Vd (L/kg)
Write it as a number; the unit L/kg goes unstated.

Exercise: Dear colleague, I am looking for the recorded Vd of the following molecule: Cc1[nH]n(-c2ccccc2)c(=O)c1Cc1ccc(C(=O)NO)cc1
Solution: 0.508

====

Assay: AUC (0 to t) in ICR mouse at 1 mg/kg,iv administration measured for 0.25 to 8 hrs by LC-MS/MS analysis
Assay type: ADME, organism-based
Conditions: in vivo, time 0.25-8 hrs
MEASURED ATTRIBUTE: AUC(0-t) (ng·h/mL)
Write the answer as a number in ng·h/mL, unit excluded.

Exercise: Would you kindly share the measured AUC(0-t) for Cc1[nH]n(-c2ccccc2)c(=O)c1Cc1ccc(C(=O)NO)cc1 ?
Solution: 7680

====

Recorded inhibition for the following compounds
Molecular target: Prostaglandin G/H synthase 2 (Homo sapiens) (UniProt P35354)
Sequence (P35354 whole entry, looked up): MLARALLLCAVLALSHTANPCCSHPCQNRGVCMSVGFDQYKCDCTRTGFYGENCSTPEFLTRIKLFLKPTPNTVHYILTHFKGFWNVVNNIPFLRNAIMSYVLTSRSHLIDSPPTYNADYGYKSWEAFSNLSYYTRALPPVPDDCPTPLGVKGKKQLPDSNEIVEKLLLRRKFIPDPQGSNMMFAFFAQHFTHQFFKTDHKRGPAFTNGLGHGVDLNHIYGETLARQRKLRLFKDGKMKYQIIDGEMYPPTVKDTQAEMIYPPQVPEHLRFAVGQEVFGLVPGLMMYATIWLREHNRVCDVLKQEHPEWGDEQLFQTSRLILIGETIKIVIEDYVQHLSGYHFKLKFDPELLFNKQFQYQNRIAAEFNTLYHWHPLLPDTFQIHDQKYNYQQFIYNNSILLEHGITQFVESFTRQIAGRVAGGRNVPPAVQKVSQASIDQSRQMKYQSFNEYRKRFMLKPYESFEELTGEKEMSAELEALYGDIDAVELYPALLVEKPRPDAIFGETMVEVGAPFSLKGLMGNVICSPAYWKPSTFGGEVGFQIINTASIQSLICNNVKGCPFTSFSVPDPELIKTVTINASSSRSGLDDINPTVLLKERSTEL
Experiment: Inhibition of COX-2 (unknown origin) using arachidonic acid as substrate at 1 uM preincubated for 10 mins followed by substrate addition and measured after 5 mins by fluorescence based analysis relative to control
Conditions: time 15.0 min
Just the number please, in %, no unit attached.

Examples with answers:
Cc1nn(-c2ccc(Cl)cc2)c(O)c1Cc1ccc(C(=O)NO)cc1 : 64.5
Cc1nn(-c2ccccc2)c(O)c1Cc1cccc(S(C)(=O)=O)c1 : 77.5
CC(C)(C)c1nn(-c2ccccc2)c(O)c1Cc1ccc(C(=O)O)cc1 : 54.5
CCc1nn(-c2ccccc2)c(O)c1Cc1ccc(C(=O)NO)cc1 : 70.5
Cc1nn(-c2ccc(Cl)c(Cl)c2)c(O)c1Cc1ccc(C(=O)NO)cc1 : 58.5

Exercise: Which value of inhibition has been reported for O=C(O)c1ccc(Cc2c(C3CC3)nn(-c3ccccc3)c2O)cc1 in the records?
Solution: 57.5

Exercise: Now consider COc1cccc(-n2nc(C)c(Cc3ccc(C(=O)NO)cc3)c2O)c1 .
Solution: 78

Exercise: Do the same for Cc1nn(-c2ccccc2)c(O)c1Cc1cccc(C(=O)O)c1 please
Solution: 63.5

Exercise: Also, Cc1nn(-c2ccccc2)c(O)c1Cc1ccc(S(C)(=O)=O)cc1 please.
Solution: 77.5

Exercise: Field entry: Cc1nn(-c2cccc(Cl)c2)c(O)c1Cc1ccc(C(=O)NO)cc1
Solution: 75

====

Listed below: inhibition values for each entry.
Target: Prostaglandin G/H synthase 2 (Homo sapiens) (UniProt P35354)
Test: Inhibition of COX-2 (unknown origin) using arachidonic acid as substrate at 10 uM preincubated for 10 mins followed by substrate addition and measured after 5 mins by fluorescence based analysis relative to control
Settings: time 15.0 min
Numeric only. Scale: %

O=C(NO)c1ccc(Cc2c(C3CC3)[nH]n(-c3ccccc3)c2=O)cc1 : 72.5
Cc1[nH]n(-c2ccccc2)c(=O)c1Cc1cccc(C(=O)NO)c1 : 86
Cc1nn(-c2cccc(Cl)c2)c(O)c1Cc1ccc(C(=O)NO)cc1 : 90.5

Exercise: Look at this compound and give its reported inhibition. Cc1nn(-c2ccc(Cl)cc2)c(O)c1Cc1ccc(C(=O)NO)cc1
Solution: 78.5

Exercise: Would you mind doing Cc1nn(-c2ccc(Cl)c(Cl)c2)c(O)c1Cc1ccc(C(=O)O)cc1 as well?
Solution: 81

Exercise: Try this compound next: Cc1nn(-c2ccc(Cl)cc2)c(O)c1Cc1ccc(C(=O)O)cc1
Solution: 78.5

====

Assay: Half life in ICR mouse at 1 mg/kg,iv administration measured for 0.25 to 8 hrs by LC-MS/MS analysis
Format: ADME, organism-based
Settings: in vivo, time 0.25-8 hrs
MEASURED ATTRIBUTE: half-life
Returns: string containing the numeric result and its unit.

Exercise: Entry under review: Cc1[nH]n(-c2ccccc2)c(=O)c1Cc1ccc(C(=O)NO)cc1 . Reported half-life?
Solution: 2.74 h

====

Biological target: Prostaglandin G/H synthase 2 (Homo sapiens)
Experiment: Inhibition of COX-2 (unknown origin) using arachidonic acid as substrate at 1 uM preincubated for 10 mins followed by substrate addition and measured after 5 mins by fluorescence based analysis relative to control
Conditions: time 15.0 min
MEASURED ATTRIBUTE: inhibition (%)
Give the value, in units of %, as a plain number.

Would you please look over these solved cases?
Cc1nn(-c2ccccc2)c(O)c1Cc1ccc(C(=O)O)cc1 : 85.5
Cc1nn(-c2ccccc2)c(O)c1Cc1ccc(CC(=O)O)cc1 : 78
CC(C)(C)c1nn(-c2ccccc2)c(O)c1Cc1ccc(C(=O)NO)cc1 : 75

# input for lookup
Exercise: Using the record for O=C(NO)c1ccc(Cc2c(C3CC3)[nH]n(-c3ccccc3)c2=O)cc1 , report its inhibition.
Solution: 55

====

Assay: MRT (0 to infinity) in ICR mouse at 1 mg/kg,iv administration measured for 0.25 to 8 hrs by LC-MS/MS analysis
Type: ADME, organism-based
Conditions: in vivo, time 0.25-8 hrs
MEASURED ATTRIBUTE: MRT inf (h)
Just the number please, in h, no unit attached.

Exercise: What value of MRT inf has been recorded for this entry: Cc1[nH]n(-c2ccccc2)c(=O)c1Cc1ccc(C(=O)NO)cc1
Solution: 1.08
